Target: T1, naked peptide KNNVRQFAS (human)
T1 peptide: KNNVRQFAS
Experiment: ELISA naked peptide; scFv 1 ug/mL; repI
EXPERIMENTAL ENDPOINT: OD450 (OD)
# output: bare number, implied unit OD

1) CCR9_HUM2 scFv (humanized anti-CCR9 scFv, SEQ ID NO: 17 with C-terminal 6xHis tag) (scFv) scFv: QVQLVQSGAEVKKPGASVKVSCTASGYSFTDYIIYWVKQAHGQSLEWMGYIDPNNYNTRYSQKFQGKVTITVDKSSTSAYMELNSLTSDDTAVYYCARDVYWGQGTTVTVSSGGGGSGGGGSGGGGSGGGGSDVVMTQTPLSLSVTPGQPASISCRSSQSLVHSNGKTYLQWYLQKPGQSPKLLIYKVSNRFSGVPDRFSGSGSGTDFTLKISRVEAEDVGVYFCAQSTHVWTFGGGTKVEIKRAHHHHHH: 0.03
2) Comparative antibody 3 (Comp-3) scFv, SR_92R (Somovilla-Crespo et al. 2018), His-tagged (scFv) scFv: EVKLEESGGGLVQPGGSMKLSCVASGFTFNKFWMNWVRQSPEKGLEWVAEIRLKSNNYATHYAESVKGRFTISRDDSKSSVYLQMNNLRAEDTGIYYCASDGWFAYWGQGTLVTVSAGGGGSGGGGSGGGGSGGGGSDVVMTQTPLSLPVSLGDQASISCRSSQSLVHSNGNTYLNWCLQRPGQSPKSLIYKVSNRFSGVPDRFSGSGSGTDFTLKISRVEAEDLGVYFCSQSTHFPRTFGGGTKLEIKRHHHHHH: 0.05

Q. Consider the binder Comparative antibody 2 (Comp-2) scFv, 243LO326 (VH SEQ ID NO: 51 and VL SEQ ID NO: 52 of WO 2022/195028 A2), His-tagged (scFv) scFv: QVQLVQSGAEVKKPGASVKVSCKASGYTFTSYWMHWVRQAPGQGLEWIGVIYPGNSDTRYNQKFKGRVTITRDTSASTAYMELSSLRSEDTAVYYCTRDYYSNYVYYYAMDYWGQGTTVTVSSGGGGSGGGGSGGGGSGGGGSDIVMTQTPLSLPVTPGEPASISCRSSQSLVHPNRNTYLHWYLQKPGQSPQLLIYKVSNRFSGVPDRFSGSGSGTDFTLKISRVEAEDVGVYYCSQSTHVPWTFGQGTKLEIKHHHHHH . State its measured OD450.
A. 0.04

Q. Return reported OD450. Input binder: Comparative antibody 1 (Comp-1) scFv, SEQ ID NO: 10 from WO2023/037125 A1, His-tagged (scFv) scFv: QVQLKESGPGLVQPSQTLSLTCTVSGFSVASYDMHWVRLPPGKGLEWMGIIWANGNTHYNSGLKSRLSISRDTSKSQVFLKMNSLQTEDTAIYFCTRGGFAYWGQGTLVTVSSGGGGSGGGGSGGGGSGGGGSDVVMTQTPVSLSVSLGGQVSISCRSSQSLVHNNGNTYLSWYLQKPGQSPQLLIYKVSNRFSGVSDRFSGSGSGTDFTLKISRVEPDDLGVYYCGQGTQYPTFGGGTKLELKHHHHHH
A. 0.02
